# system.name: hERG channel (Homo sapiens (Human))
# Sequence (Q12809 whole entry): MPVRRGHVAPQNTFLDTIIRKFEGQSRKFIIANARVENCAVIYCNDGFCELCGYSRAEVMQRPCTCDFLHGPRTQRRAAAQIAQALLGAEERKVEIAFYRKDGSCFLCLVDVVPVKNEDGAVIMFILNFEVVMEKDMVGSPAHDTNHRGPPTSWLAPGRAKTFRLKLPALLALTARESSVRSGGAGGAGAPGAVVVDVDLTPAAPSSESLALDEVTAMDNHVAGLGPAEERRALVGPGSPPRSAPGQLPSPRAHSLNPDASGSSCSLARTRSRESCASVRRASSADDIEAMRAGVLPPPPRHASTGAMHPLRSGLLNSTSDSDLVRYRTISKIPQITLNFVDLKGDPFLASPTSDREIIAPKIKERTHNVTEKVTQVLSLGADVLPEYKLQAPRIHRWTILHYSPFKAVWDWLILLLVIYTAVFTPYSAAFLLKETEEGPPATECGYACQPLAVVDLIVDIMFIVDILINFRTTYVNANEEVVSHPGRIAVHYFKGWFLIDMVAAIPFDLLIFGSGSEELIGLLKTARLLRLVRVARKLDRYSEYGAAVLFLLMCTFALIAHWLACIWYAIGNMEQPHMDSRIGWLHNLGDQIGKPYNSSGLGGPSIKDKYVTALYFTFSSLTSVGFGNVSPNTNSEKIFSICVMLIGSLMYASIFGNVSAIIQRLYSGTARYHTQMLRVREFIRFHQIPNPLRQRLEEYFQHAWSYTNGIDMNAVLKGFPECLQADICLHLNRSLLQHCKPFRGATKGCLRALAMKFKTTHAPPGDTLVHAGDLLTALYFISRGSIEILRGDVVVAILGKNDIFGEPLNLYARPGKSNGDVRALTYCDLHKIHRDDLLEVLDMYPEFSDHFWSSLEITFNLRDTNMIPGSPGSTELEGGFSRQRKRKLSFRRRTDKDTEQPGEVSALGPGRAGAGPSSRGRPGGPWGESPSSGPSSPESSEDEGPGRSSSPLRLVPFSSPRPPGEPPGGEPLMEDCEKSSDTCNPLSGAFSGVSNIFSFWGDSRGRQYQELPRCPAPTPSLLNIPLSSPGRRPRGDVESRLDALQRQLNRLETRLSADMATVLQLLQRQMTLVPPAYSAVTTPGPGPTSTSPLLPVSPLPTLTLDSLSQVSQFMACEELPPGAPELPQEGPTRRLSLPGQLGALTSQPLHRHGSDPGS
# measurement.description: Human ERG channel binding assay (fluorescence polarization)
# run.parameters: Table 1; tracer displacement, 4 h at room temperature
pIC50: −log10 of the molar value.
Entries and their pIC50
readout.label: pIC50

> print(dat)
                                   compound                          system.name  reported.measurement
1  CC(F)[C@H]1CN(C2CCN(c3nnc(N)[nH]3)CC2)[C@@H](Cc2ccc(Cl)cc2)CO1 (relative stereo) [Example 20, 2,2,2-trifluoroacetate]  hERG channel (Homo sapiens (Human))                < 4.00
2  Nc1nnc(N2CCC(N3C[C@H](CN4CCC(F)(F)C4)OC[C@@H]3Cc3ccc(Cl)cc3)CC2)[nH]1 [Example 29, 2,2,2-trifluoroacetate]  hERG channel (Homo sapiens (Human))                < 4.00
3  CC(C)(O)[C@H]1CN(C2CCN(c3nnc(N)[nH]3)CC2)[C@@H](Cc2ccc(Br)cc2)CO1 [Example 64, 2,2,2-trifluoroacetate]  hERG channel (Homo sapiens (Human))                < 4.00
4  Cc1cc([C@H]2CN(C3CCN(c4nnc(N)[nH]4)CC3)[C@@H](Cc3ccc(Cl)cc3)CO2)on1 [Example 22, 2,2,2-trifluoroacetate]  hERG channel (Homo sapiens (Human))                < 4.00
5  Cn1ccc([C@H]2CN(C3CCN(c4nnc(N)[nH]4)CC3)[C@@H](Cc3ccc(Cl)cc3)CO2)n1 [Example 9, 2,2,2-trifluoroacetate]  hERG channel (Homo sapiens (Human))                < 4.00
6  Cn1nnc(C[C@H]2CN(C3CCN(c4nnc(N)[nH]4)CC3)[C@@H](Cc3ccc(Cl)cc3)CO2)n1 [Example 5, 2,2,2-trifluoroacetate]  hERG channel (Homo sapiens (Human))          4.00 to 4.60
